parameter.measured: melting point

Worked cases, answers included:
[
  {
    "molecule": "COCc1nc2c(N)nc3cc(CCC#N)ccc3c2n1CC(C)(C)O",
    "melting point": "191 to 193 °C"
  },
  {
    "molecule": "CC(C#N)c1ccc2oc(-c3ccccc3)nc2c1 (stereo unspecified)",
    "melting point": "118 to 120 °C"
  },
  {
    "molecule": "O=c1[nH]c(N[N+](=O)[O-])ncc1Cc1ccco1",
    "melting point": "183 to 184 °C"
  }
]

# input molecule: CC(C)c1ccc(-c2nsc(-c3cccc(C(=O)O)c3)n2)cc1 ; wanted: its melting point
166 to 168 °C

# input molecule: O=C(N[C@@H](Cc1ccc(C(F)(F)F)cc1)[C@H](O)c1ccc(F)cc1)c1ccc(C(F)F)c2ccccc12 ; wanted: its melting point
212 to 213 °C

# input molecule: Oc1c(C2NCCc3ccccc32)ccc2ccccc12 (stereo unspecified) ; wanted: its melting point
117 to 120 °C

# input molecule: COc1ccc(-c2cc(O)ccc2-c2ncnc(-c3ccccc3)n2)cc1 ; wanted: its melting point
177 to 178 °C

###

# key: entry, value: melting point

Worked cases, answers included:
[
  {
    "molecule": "Cc1ccc(S(=O)(=O)OCC2Cc3cccc(-c4ccc(F)cc4)c3O2)cc1 (stereo not given)",
    "melting point": "83 to 86 °C"
  },
  {
    "molecule": "COC(=O)c1ccc(C(=O)c2ccc(C)cc2)cc1",
    "melting point": "125 to 126 °C"
  }
]

# input molecule: CCN1C(=O)Cc2cc(C(=O)c3cccs3)ccc21 ; wanted: its melting point
158 to 160 °C

# input molecule: Cc1cc(Oc2ccc(N)cc2)c2cc3c(cc2n1)OCO3 ; wanted: its melting point
251 to 253 °C

# input molecule: CC(=O)Nc1cc([N+](=O)[O-])ccc1OCCCCl ; wanted: its melting point
130 °C

# input molecule: CCOC(=O)N(CCNc1ccc2ncc(-c3ccc(C(N)=O)cc3)n2n1)c1ccccc1 ; wanted: its melting point
227 to 228 °C

# input molecule: CN(C(=O)OC(C)(C)C)c1cccc(-c2nc(=O)c3ccccc3s2)n1 ; wanted: its melting point
196 °C

# input molecule: CS(=O)(=O)c1nnc(-c2ccccc2Nc2cccc(C(F)(F)F)c2)o1 ; wanted: its melting point
144 to 148 °C

# input molecule: CCOC(=O)C(C#N)=NOC(=O)OCC(Cl)(Cl)Cl ; wanted: its melting point
51 to 53 °C

# input molecule: CCOC(=O)COc1ccc(CBr)cc1 ; wanted: its melting point
44 to 45 °C

###

# key: entry, value: melting point

Worked cases, answers included:
[
  {
    "compound": "CC(=O)OC1CSC(Oc2ccccc2-c2c(C)noc2C)C(OC(C)=O)C1OC(C)=O (centres undefined)",
    "melting point": "136 to 138 °C"
  },
  {
    "compound": "O=C(O)C(Cl)(Cl)CCCCCCCCCCCCBr",
    "melting point": "59 to 60 °C"
  },
  {
    "compound": "CCCCOc1ccc(C(=O)NCCCCCCCNC(=O)c2ccc(OCCCC)cc2)cc1",
    "melting point": "151 to 152 °C"
  },
  {
    "compound": "Nc1cc(-c2ccnc3c(C(=O)c4cccs4)cnn23)ccc1F",
    "melting point": "241 to 242 °C"
  },
  {
    "compound": "CC(C)(O)CNc1c([N+](=O)[O-])cnc2cccnc12",
    "melting point": "184 to 186 °C"
  }
]

Kindly consider the entry below.
# input compound: CC(=O)Nc1ccc(/C=C/C(=O)NCC(=O)N(C)c2ccc(C)c(CO)c2C)cn1 ; wanted: its melting point
215 to 216 °C
